This collection of values is drawn from ChEMBL document CHEMBL1134271.

# assayed.system: UniProtKB P24530
# Sequence (P24530 whole entry): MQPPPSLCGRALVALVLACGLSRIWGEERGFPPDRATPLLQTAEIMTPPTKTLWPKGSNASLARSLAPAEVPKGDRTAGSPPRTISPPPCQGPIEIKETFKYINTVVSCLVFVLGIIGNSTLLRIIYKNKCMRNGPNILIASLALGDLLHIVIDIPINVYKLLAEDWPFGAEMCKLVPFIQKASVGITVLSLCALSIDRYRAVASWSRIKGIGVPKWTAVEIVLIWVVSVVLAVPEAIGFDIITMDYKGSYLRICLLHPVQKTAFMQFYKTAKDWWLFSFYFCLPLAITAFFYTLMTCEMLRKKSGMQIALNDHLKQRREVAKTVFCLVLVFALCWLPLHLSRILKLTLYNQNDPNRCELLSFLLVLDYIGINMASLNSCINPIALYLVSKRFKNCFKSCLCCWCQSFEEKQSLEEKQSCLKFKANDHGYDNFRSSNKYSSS
# method: Binding affinity against human endothelin B receptor in CHO cells
quantity.measured: IC50 (µM)

Before answering, review these 2 worked examples.
molecule	IC50, µM
CCCCN(CCCC)C(=O)CN1C[C@H](c2ccc3c(c2)OCCO3)[C@@H](C(=O)O)[C@@H]1c1ccc(CC)c(F)c1	0.95
CCCCN(CCCC)C(=O)CN1C[C@H](c2ccc3c(c2)CCO3)[C@@H](C(=O)O)[C@@H]1c1ccc(C)c(F)c1 (stereo in doubt; 8)	4.4

I = CCCCN(CCCC)C(=O)CN1C[C@H](c2ccc3c(c2)CCO3)[C@@H](C(=O)O)[C@@H]1c1ccc(C)c(F)c1 (stereo in doubt; 8a)
II = CCCCN(CCCC)C(=O)CN1C[C@H](c2ccc3c(c2)CCO3)[C@@H](C(=O)O)[C@@H]1c1ccc(CC)c(F)c1
Given the listed records, identify the one among I and II with higher IC50. Lab log: write the label of the selected item as the result.
I
(I: 6.2 µM, II: 3.05 µM)
